# test_target: UniProtKB P41146
# Sequence (P41146 whole entry): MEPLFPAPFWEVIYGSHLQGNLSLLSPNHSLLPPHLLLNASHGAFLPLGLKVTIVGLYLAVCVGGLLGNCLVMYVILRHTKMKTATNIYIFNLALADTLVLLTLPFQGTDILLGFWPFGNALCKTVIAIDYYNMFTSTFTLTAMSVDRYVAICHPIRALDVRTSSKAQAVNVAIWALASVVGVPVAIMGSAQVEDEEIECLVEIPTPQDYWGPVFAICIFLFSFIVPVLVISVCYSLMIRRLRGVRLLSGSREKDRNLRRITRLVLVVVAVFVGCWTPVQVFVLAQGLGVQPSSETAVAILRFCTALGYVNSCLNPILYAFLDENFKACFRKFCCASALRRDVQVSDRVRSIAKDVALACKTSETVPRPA
# test_description: ORL1 receptor binding assay using 3H-nociceptin/orphanin FQ with membranes of recombinant CHO-ORL1 cells
# condition_info: 3H-nociceptin/orphanin FQ 0.5 nM, WGA-SPA beads, one hour at room temperature
Where a name gives a salt, the structure may show the parent alone.
property_measured: pKi
In plain terms, pKi is the concentration in mol/L turned into minus its base-10 logarithm.

> print(dat)
                                   molecule  reported
1  CN(C)C(c1ccccc1)C1CCCCC1(O)Cc1cccc(Cl)c1 (stereo not shown) [Example 2, hydrochloride]      5.68
2  CN(C)C(c1ccccc1)C1CCCCC1(O)Cc1ccc(F)c(F)c1 (stereo not shown) [Example 4, hydrochloride]      5.72
3  CN(C)C(c1ccsc1)C1CCCCC1(O)Cc1cccc(C(F)(F)F)c1 (stereo not shown) [Example 7, hydrochloride]      6.48

Given the entry CN(C)C(c1ccccc1)C1CCCCC1(O)Cc1cccc(C(F)(F)F)c1 (stereo not shown) [Example 5, hydrochloride] , report its measured pKi.
6.05

Given the entry CN(C)C(c1ccccc1)C1CCCCC1(O)Cc1ccc(Cl)cc1 (stereo not shown) [Example 3, hydrochloride] , report its measured pKi.
5.77

Given the entry CN(C)C(c1ccccc1)C1CCCCC1(O)Cc1ccccc1Cl (stereo not shown) [Example 1, hydrochloride] , report its measured pKi.
5.22

Given the entry CN(C)C(c1cccs1)C1CCCCC1(O)Cc1cccc(C(F)(F)F)c1 (stereo not shown) [Example 6, Hydrochloride] , report its measured pKi.
6.22
